# Test system: ACA acylase
# Assay Name: Influences of inhibitors and activators on ACA acylase activity (standard conditions, coupled test with D-2-hydroxy-4-methylpentanoic acid dehydrogenase)
# Format: biochemical, Brevibacterium spec.
# Study Conditions: reagent concentration 10 nM (so in the source); 0.1 M phosphate buffer pH 7.5, 30° C.
Endpoint Name: Residual Activity (%)
Your answer is read as %, so omit the unit and give the number.

## Input Residual Activity lookup needed for c1ccc(-c2ccccn2)nc1 , thanks.
## Output 69

## Input Thanks! And O[C@H](CS)[C@H](O)CS (racemic) ?
## Output 123

## Input What do we get for c1cnc2c(c1)ccc1cccnc12 ?
## Output 45

## Input Again, but for OCCS
## Output 100

## Input Next compound: N[C@@H](CCC(=O)N[C@@H](CS)C(=O)NCC(=O)O)C(=O)O
## Output 81

## Input Also O=C(O)CN(CCN(CC(=O)O)CC(=O)O)CC(=O)O , if possible.
## Output 102

----------
Assign Residual Activity to each entry below.
# System: ACA acylase
# Assay Name: Influences of inhibitors and activators on ACA acylase activity (standard conditions, coupled test with D-2-hydroxy-4-methylpentanoic acid dehydrogenase)
# Type: biochemical, Brevibacterium spec.
# Study Conditions: reagent concentration 1 nM (so in the source); 0.1 M phosphate buffer pH 7.5, 30° C.
Please give a number only; it is taken to be in %.

## Input Would you kindly share the measured Residual Activity for c1cnc2c(c1)ccc1cccnc12 [o-phenanthroline] ?
## Output 72

## Input What do you get for O=C(O)CN(CCN(CC(=O)O)CC(=O)O)CC(=O)O [EDTA] ?
## Output 111

## Input Now consider c1ccc(-c2ccccn2)nc1 [2,2-dipyridyl] .
## Output 97

## Input Lookup OCCS [2-mercaptoethanol]
## Output 100

## Input Try this molecule too: N[C@@H](CCC(=O)N[C@@H](CS)C(=O)NCC(=O)O)C(=O)O [red. glutathione]
## Output 102

## Input Likewise for O[C@H](CS)[C@H](O)CS (racemic) [dithiothreitol] ?
## Output 146

----------
# Tested on: ACA acylase
# Assay Name: Influences of inhibitors and activators on ACA acylase activity (standard conditions, coupled test with D-2-hydroxy-4-methylpentanoic acid dehydrogenase)
# Type: biochemical, Brevibacterium spec.
# Study Conditions: bivalent metal ion, concentration 1 nM (so in the source); 0.1M tris/HCl buffer pH 8.0
Endpoint Name: Residual Activity (%)
Please state the figure in %; there is no need to write the unit.

## Input Give the measured Residual Activity of [Ca+2].[Cl-].[Cl-] .
## Output 99

## Input // query: [Cl][Cd][Cl]
## Output 72

## Input // next record [Cl][Mn][Cl]
## Output 63

## Input Also check [Cl-].[Cl-].[Zn+2]
## Output 86

Where these numbers come from: patent US4877734A
